# Assay Procedure: Haemolytic activity in human erythrocytes assessed as haemolytic index by measuring hemoglobin release at 64 mg/L incubated for 1 hr by microplate spectrophotometry
# Assay type: ADME, cell-based, Erythrocyte
# Condition Details: read-out: HI
Experimental Endpoint: hemolysis at 1 h, 64 mg/L (%)
Give bare numbers, in %.

Study these solved cases before continuing.
| Chemical Structure | hemolysis at 1 h, 64 mg/L / % |
| --- | --- |
| C[C@@H]1CC[C@@]2(OC1)O[C@H]1C[C@H]3[C@@H]4CC=C5C[C@@H](O[C@@H]6O[C@H](CO)[C@@H](O)[C@H](O)[C@H]6NC(=O)[C@@H](O)CO)CC[C@]5(C)[C@H]4CC[C@]3(C)[C@H]1[C@@H]2C | 27 |
| C[C@@H]1CC[C@@]2(OC1)O[C@H]1C[C@H]3[C@@H]4CC=C5C[C@@H](O[C@@H]6O[C@H](CO)[C@@H](O)[C@H](O)[C@H]6NC(=O)[C@H](C)NC(=O)[C@H](C)N)CC[C@]5(C)[C@H]4CC[C@]3(C)[C@H]1[C@@H]2C | 57 |

Documented hemolysis at 1 h, 64 mg/L of C[C@@H]1CC[C@@]2(OC1)O[C@H]1C[C@H]3[C@@H]4CC=C5C[C@@H](O[C@@H]6O[C@H](CO)[C@@H](O)[C@H](O)[C@H]6NC(=O)[C@@H]6CCCN6)CC[C@]5(C)[C@H]4CC[C@]3(C)[C@H]1[C@@H]2C : 100

====

# Test system: Candida albicans
# Assay Procedure: Antifungal activity against Candida albicans ATCC 10231 incubated in sabouraud liquid medium under aerobic condition for 48 hrs using initial inoculum of 10^3 CFU/ml by serial dilution method
# Type: functional
# Condition Details: ATCC 10231, 48 h
Experimental Endpoint: MIC (µg/mL)
Give bare numbers, in µg/mL.

Study these solved cases before continuing.
| Chemical Structure | Tested System | Experimental Endpoint | Obs Value |
| --- | --- | --- | --- |
| C[C@@H]1CC[C@@]2(OC1)O[C@H]1C[C@H]3[C@@H]4CC=C5C[C@@H](O[C@@H]6O[C@H](CO)[C@@H](O)[C@H](O)[C@H]6NC(=O)[C@@H](N)CCCCN)CC[C@]5(C)[C@H]4CC[C@]3(C)[C@H]1[C@@H]2C | Candida albicans | MIC | 4 |
| C[C@@H]1CC[C@@]2(OC1)O[C@H]1C[C@H]3[C@@H]4CC=C5C[C@@H](O[C@@H]6O[C@H](CO)[C@@H](O)[C@H](O)[C@H]6NC(=O)CN)CC[C@]5(C)[C@H]4CC[C@]3(C)[C@H]1[C@@H]2C | Candida albicans | MIC | 64 |
| C[C@@H]1CC[C@@]2(OC1)O[C@H]1C[C@H]3[C@@H]4CC=C5C[C@@H](O[C@@H]6O[C@H](CO)[C@@H](O)[C@H](O)[C@H]6N)CC[C@]5(C)[C@H]4CC[C@]3(C)[C@H]1[C@@H]2C.Cl | Candida albicans | MIC | 2 |
| C[C@@H]1CC[C@@]2(OC1)O[C@H]1C[C@H]3[C@@H]4CC=C5C[C@@H](O[C@@H]6O[C@H](CO)[C@@H](O)[C@H](O)[C@H]6NC(=O)[C@@H](O)CO)CC[C@]5(C)[C@H]4CC[C@]3(C)[C@H]1[C@@H]2C | Candida albicans | MIC | 16 |
| C[C@@H]1CC[C@@]2(OC1)O[C@H]1C[C@H]3[C@@H]4CC=C5C[C@@H](O[C@@H]6O[C@H](CO)[C@@H](O)[C@H](O)[C@H]6NC(=O)[C@H](C)NC(=O)[C@H](C)N)CC[C@]5(C)[C@H]4CC[C@]3(C)[C@H]1[C@@H]2C | Candida albicans | MIC | 64 |
| C[C@@H]1CC[C@@]2(OC1)O[C@H]1C[C@H]3[C@@H]4CC=C5C[C@@H](O[C@@H]6O[C@H](CO)[C@@H](O)[C@H](O)[C@H]6NC(=O)[C@@H](N)CO)CC[C@]5(C)[C@H]4CC[C@]3(C)[C@H]1[C@@H]2C | Candida albicans | MIC | 4 |
| C[C@@H]1CC[C@@]2(OC1)O[C@H]1C[C@H]3[C@@H]4CC=C5C[C@@H](O[C@@H]6O[C@H](CO)[C@@H](O)[C@H](O)[C@H]6NC(=O)[C@@H](N)[C@@H](C)O)CC[C@]5(C)[C@H]4CC[C@]3(C)[C@H]1[C@@H]2C | Candida albicans | MIC | 4 |
| CNCC(=O)N[C@H]1[C@H](O[C@H]2CC[C@@]3(C)C(=CC[C@H]4[C@@H]5C[C@@H]6O[C@]7(CC[C@@H](C)CO7)[C@@H](C)[C@@H]6[C@@]5(C)CC[C@@H]43)C2)O[C@H](CO)[C@@H](O)[C@@H]1O | Candida albicans | MIC | 4 |
| C[C@@H]1CC[C@@]2(OC1)O[C@H]1C[C@H]3[C@@H]4CC=C5C[C@@H](O[C@@H]6O[C@H](CO)[C@@H](O)[C@H](O)[C@H]6NC(=O)[C@@H](C)N)CC[C@]5(C)[C@H]4CC[C@]3(C)[C@H]1[C@@H]2C | Candida albicans | MIC | 4 |

Consider the record given below.
Documented MIC of C[C@@H]1CC[C@@]2(OC1)O[C@H]1C[C@H]3[C@@H]4CC=C5C[C@@H](O[C@@H]6O[C@H](CO)[C@@H](O)[C@H](O)[C@H]6NC(=O)[C@H](C)N)CC[C@]5(C)[C@H]4CC[C@]3(C)[C@H]1[C@@H]2C : 4

====

Kindly supply the reported hemolysis at 1 h, 128 mg/L values for the records listed here.
# Assay Procedure: Haemolytic activity in human erythrocytes assessed as haemolytic index by measuring hemoglobin release at 128 mg/L incubated for 1 hr by microplate spectrophotometry
# Type: ADME, cell-based, Erythrocyte
# Condition Details: read-out: HI
Give bare numbers, in %.

Give hemolysis at 1 h, 128 mg/L for each of the items listed below.
1. C[C@@H]1CC[C@@]2(OC1)O[C@H]1C[C@H]3[C@@H]4CC=C5C[C@@H](O[C@@H]6O[C@H](CO)[C@@H](O)[C@H](O)[C@H]6NC(=O)[C@@H](O)CO)CC[C@]5(C)[C@H]4CC[C@]3(C)[C@H]1[C@@H]2C
2. C[C@@H]1CC[C@@]2(OC1)O[C@H]1C[C@H]3[C@@H]4CC=C5C[C@@H](O[C@@H]6O[C@H](CO)[C@@H](O)[C@H](O)[C@H]6NC(=O)[C@@H](N)[C@@H](C)O)CC[C@]5(C)[C@H]4CC[C@]3(C)[C@H]1[C@@H]2C
3. C[C@@H]1CC[C@@]2(OC1)O[C@H]1C[C@H]3[C@@H]4CC=C5C[C@@H](O[C@@H]6O[C@H](CO)[C@@H](O)[C@H](O)[C@H]6NC(=O)[C@@H](N)CCCCN)CC[C@]5(C)[C@H]4CC[C@]3(C)[C@H]1[C@@H]2C
4. C[C@@H]1CC[C@@]2(OC1)O[C@H]1C[C@H]3[C@@H]4CC=C5C[C@@H](O[C@@H]6O[C@H](CO)[C@@H](O)[C@H](O)[C@H]6NC(=O)CN)CC[C@]5(C)[C@H]4CC[C@]3(C)[C@H]1[C@@H]2C

Reply:
1. 56
2. 56
3. 92
4. 16

====

# Assay Procedure: Haemolytic activity in human erythrocytes assessed as haemolytic index by measuring hemoglobin release at 128 mg/L incubated for 1 hr by microplate spectrophotometry
# Type: ADME, cell-based, Erythrocyte
# Condition Details: read-out: HI
Kindly supply the reported hemolysis at 1 h, 128 mg/L values for the records listed here.
Answers are plain numbers, in %.

Study these solved cases before continuing.
| Chemical Structure | hemolysis at 1 h, 128 mg/L / % |
| --- | --- |
| C[C@@H]1CC[C@@]2(OC1)O[C@H]1C[C@H]3[C@@H]4CC=C5C[C@@H](O[C@@H]6O[C@H](CO)[C@@H](O)[C@H](O)[C@H]6NC(=O)[C@@H]6CCCN6)CC[C@]5(C)[C@H]4CC[C@]3(C)[C@H]1[C@@H]2C | 100 |
| C[C@@H]1CC[C@@]2(OC1)O[C@H]1C[C@H]3[C@@H]4CC=C5C[C@@H](O[C@@H]6O[C@H](CO)[C@@H](O)[C@H](O)[C@H]6NC(=O)[C@@H](N)CO)CC[C@]5(C)[C@H]4CC[C@]3(C)[C@H]1[C@@H]2C | 46 |

Consider the record given below.
Documented hemolysis at 1 h, 128 mg/L of C[C@@H]1CC[C@@]2(OC1)O[C@H]1C[C@H]3[C@@H]4CC=C5C[C@@H](O[C@@H]6O[C@H](CO)[C@@H](O)[C@H](O)[C@H]6NC(=O)[C@H](C)NC(=O)[C@H](C)N)CC[C@]5(C)[C@H]4CC[C@]3(C)[C@H]1[C@@H]2C : 74
